Kindly find below Ki information for Adenosine receptor A2a (Homo sapiens, UniProt P29274) taken from the literature.
MEASURE NAME: Ki (nM)

CCC(=O)N[C@H]1C[C@@H](n2cnc3c(NC(CC)CC)nc(NC4CCC(N)CC4)nc32)[C@H](O)[C@@H]1O (stereo partly shown) = 8
CC(=O)NC(C)(C)CNC(=O)c1ccn2nc(-c3cccc(C#N)c3)c(-c3cc(C)nc(Cl)c3)c2n1 = 0.4
Cc1cc(-c2c(-c3cccc(C#N)c3)nn3ccc(NC4CCN(C)C(=O)C4)nc23)cc(C)n1 (stereo not shown) = 1.7
Cc1cc(-c2sc(NC(=O)N3CCN(C)CC3)nc2-c2cccc(C#N)c2)cc(Cl)n1 = 0.64
O=Cc1c(-c2ccco2)nn2ccc(NCc3ccccc3)nc12 = 5.2
Cc1cc(-c2c(-c3cccc(C#N)c3)nn3ccc(C(=O)NCC4CNC(=O)CO4)nc23)cc(C)n1 (stereo not shown) = 9.2
CCCCC#Cc1nc(NCC(c2ccccc2)c2ccccc2)c2ncn(C3CC(NC(=O)CC)C(O)C3O)c2n1 (stereo not shown) = 8
Cc1cc(-c2sc(NC(=O)N3CC[C@H](C(=O)O)C3)nc2-c2cccc(C#N)c2)cc(C)n1 = 34.3
Cc1cc(-c2c(-c3cccc(C#N)c3)nn3ccc(C(=O)NCCC(C)(C)N)nc23)cc(C)n1 = 0.5
Cc1cc(-c2c(-c3cccc(C#N)c3)nn3ccc(C(=O)NCC4CCCNC4=O)nc23)cc(C)n1 (stereo not shown) = 0.3
Cc1cc(-c2sc(NC(=O)N3CCN(C4COC4)CC3)nc2-c2cccc(C#N)c2)cc(C(F)(F)F)n1 = 1.52
Cc1cc(-c2c(-c3cccc(C#N)c3)nn3ccc(C(=O)N4CCOCC4)nc23)cc(Cl)n1 = 14.8
Cc1cccnc1CN1CCN(c2ccn3nc(-c4ccco4)c(C#N)c3n2)CC1 = 24.1
N#Cc1c(-c2ccco2)nn2ccc(NCCO)nc12 = 244
Cc1cc(-c2c(-c3cccc(C#N)c3)nn3ccc(N)nc23)cc(Cl)n1 = 2.6
Cc1cc(-c2c(-c3cccc(C#N)c3)nn3ccc(N)nc23)cc(C(=O)O)n1 = 359

* * *

Kindly find below Ki information for Adenosine receptor A2a (Homo sapiens, UniProt P29274) taken from the literature.
MEASURE NAME: Ki (nM)

Cc1cc(-c2c(-c3cccc(C#N)c3)nn3ccc(C(=O)NC[C@@H]4CNC(=O)C4)nc23)cc(C)n1 = 3.2
Cc1cc(-c2sc(NC(=O)N3CCN[C@H](CO)C3)nc2-c2cccc(C#N)c2)cc(Cl)n1 = 0.84
Cc1cc(-c2c(-c3cccc(C#N)c3)nn3ccc(C(=O)N[C@@H]4CN(C)C[C@H]4O)nc23)cc(C)n1 = 2.9
Cc1cc(-c2c(-c3cccc(C#N)c3)nn3ccc(N[C@@H](C)C(C)(C)O)nc23)cc(Cl)n1 = 2
COC(=O)[C@H]1CN(C(=O)Nc2nc(-c3cccc(C#N)c3)c(-c3cc(C)nc(Cl)c3)s2)CCN1 = 0.62
Cc1cc(-c2sc(NC(=O)N3CCS(=O)(=O)CC3)nc2-c2cccc(C#N)c2)cc(C)n1 = 0.1
Cc1cc(-c2c(-c3cccc(C#N)c3)nn3ccc(NC[C@H]4COCCN4)nc23)cc(Cl)n1 = 4.2
CN(C)[C@@H]1CCN(c2nc(NCC(c3ccccc3)c3ccccc3)c3ncn([C@@H]4C[C@H](n5cc(CO)cn5)[C@@H](O)[C@H]4O)c3n2)C1 = 2
CC(C)(O)CNC(=O)c1ccn2nc(-c3cccc(C#N)c3)c(C#N)c2n1 = 218
Cc1cc(-c2sc(NC(=O)N3CCS(=N)(=O)CC3)nc2-c2cccc(C#N)c2)cc(C(F)F)n1 = 0.29
Cc1cc(-c2c(-c3cccc(C#N)c3)nn3ccc(C(=O)NCC(C)(C)O)nc23)cc(C#N)n1 = 3.4
CCCC(C(=O)N1CCN(c2ccc(OCCOC)cc2)CC1)n1ncc2c1nc(N)n1nc(-c3ccco3)nc21 (single isomer, unassigned) = 6
Cc1cc(-c2c(-c3cccc(C#N)c3)nn3ccc(C(=O)N[C@H](C)C(C)(C)O)nc23)cc(Cl)n1 = 0.6

* * *

Kindly find below Ki information for Adenosine receptor A2a (Homo sapiens, UniProt P29274) taken from the literature.
MEASURE NAME: Ki (nM)

N#Cc1c(-c2ccco2)nn2ccc(N)nc12 = 147
Cc1cc(-c2c(-c3cccc(C#N)c3)nn3ccc(NC(=O)C(C)(C)O)nc23)cc(Cl)n1 = 1
Cc1cc(-c2sc(NC(=O)N3CC4(C3)CC(C)(O)C4)nc2-c2cccc(C#N)c2)cc(C)n1 = 0.4
CC(C)(O)CNC(=O)c1ccn2nc(-c3cccc(C#N)c3)c(-c3cncs3)c2n1 = 27.4
Cc1cc(-c2sc(NC(=O)N3C[C@@H]4CNC(=O)[C@@H]4C3)nc2-c2cccc(C#N)c2)cc(C)n1 = 4.3
Cc1cc(-c2c(-c3cccc(C#N)c3)nn3ccc(C(=O)NC[C@@H](C)O)nc23)cc(Cl)n1 = 0.9
Cc1cc(-c2c(-c3cccc(C#N)c3)nn3ccc(N4C[C@@H]5NCCO[C@H]5C4)nc23)cc(Cl)n1 = 3.2
N#Cc1c(-c2ccco2)nn2ccc(N3CCN(c4ccccc4)CC3)nc12 = 43.1
Cc1cnn([C@H]2C[C@@H](n3cnc4c(N)nc(N[C@@H]5CCC[C@H]5OCc5ccccc5)nc43)[C@H](O)[C@@H]2O)c1 = 138
Cc1cc(-c2c(-c3cccc(C#N)c3)nn3ccc(N4CCOC(CCN(C)C)C4)nc23)cc(Cl)n1 (stereo not shown) = 4.6
NC1CCN(c2nc(NCC(c3ccccc3)c3ccccc3)c3ncn(C4CC(NC(=O)C5CCC5)C(O)C4O)c3n2)C1 (stereo not shown) = 52
Cc1cc(-c2sc(NC(=O)N3CCCC3)nc2-c2cccc(C#N)c2)cc(Cl)n1 = 0.4
Cc1cc(-c2c(-c3cccc(C#N)c3)nn3ccc(N)nc23)cc(C#N)n1 = 7.2
Fc1cccc(-c2cc3nc(NCCc4ccccc4)ccn3n2)c1 = 284
Cc1cc(-c2c(-c3cccc(C#N)c3)nn3ccc(C(=O)N[C@H]4COC[C@H]4O)nc23)cc(C)n1 = 0.6
CCn1c(=O)c2c(C)c(Cn3nc[nH]c3=O)sc2n(CCC(F)(F)F)c1=O = 1700
Cc1cc(-c2sc(NC(=O)N3CCC4(CC3)C(=O)N(C)C(=O)N4C)nc2-c2cccc(C#N)c2)cc(C)n1 = 0.48
Nc1nc(-c2ccncc2)c(-c2ccncc2F)cc1Br = 1300
CC(C)(O)c1cc(-c2sc(NC(=O)N3CC4(COC4)C3)nc2-c2cccc(C#N)c2)cc(Cl)n1 = 0.16
Cc1cc(-c2sc(NC(=O)N3CC4(COC4)C3)nc2-c2cccc(C#N)c2)cc(C(F)(F)F)n1 = 0.13
Cc1cc(-c2sc(NC(=O)N3CCNCC3(C)C)nc2-c2cccc(C#N)c2)cc(C)n1 = 10.3
N#Cc1c(-c2ccco2)nn2ccc(N3CCN(Cc4c(F)cc(F)cc4F)CC3)nc12 = 26.5
Cc1cc(-c2c(-c3cccc(C#N)c3)nn3ccc(N)nc23)cc(F)n1 = 10.1
Cc1cc(-c2sc(NC(=O)N3CCNCC3C3CC3)nc2-c2cccc(C#N)c2)cc(C)n1 (stereo not shown) = 5.79
Cc1cc(-c2c(-c3cccc(C#N)c3)nn3ccc(C(=O)N[C@H](C)CO)nc23)cc(Cl)n1 = 0.9
Cc1cc(-c2c(-c3cccc(C#N)c3)nn3ccc(N/C(=N\C#N)NCC(C)(C)O)nc23)cc(Cl)n1 = 0.8
Cc1cc(-c2c(-c3cccc(C#N)c3)nn3ccc(C(=O)O)nc23)cc(Cl)n1 = 94
Cc1cc(-c2sc(NC(=O)N3C[C@@H]4NCCO[C@@H]4C3)nc2-c2cccc(C#N)c2)cc(C(F)F)n1 (racemic) = 2.09
Cc1cc(-c2c(-c3cccc(C#N)c3)nn3ccc(N[C@@H]4COC[C@@H]4O)nc23)cc(Cl)n1 = 2.1

* * *

Kindly find below pKi information for Adenosine receptor A2a (Homo sapiens, UniProt P29274) taken from the literature.
pKi: −log10 of the molar value.
Outcome: Criterion met for pKi of at least 8; Criterion not met for anything lower.

CC(C)(O)CNC(=O)c1ccn2nc(-c3cccc(C#N)c3)c(-c3ccncn3)c2n1 = Criterion not met
CCC(=O)N[C@H]1C[C@@H](n2cnc3c(NC(CC)CC)nc(Cl)nc32)[C@H](O)[C@@H]1O = Criterion not met
CC(=O)Nc1ccn2nc(-c3cccc(C#N)c3)c(-c3cc(C)nc(Cl)c3)c2n1 = Criterion met
Cc1cc(-c2c(-c3cccc(C#N)c3)nn3ccc(C(=O)NCC(C)(C)O)nc23)cc(Cl)n1 = Criterion met
Cc1cc(-c2sc(NC(=O)N3CC[S+]([O-])CC3)nc2-c2cccc(C#N)c2)cc(CO)n1 = Criterion met
Cc1cc(-c2c(-c3cccc(C#N)c3)nn3ccc(N)nc23)cc(C(F)F)n1 = Criterion met
CCn1c(=O)c2c(C)c(CN3CCNC3=O)sc2n(CCOC)c1=O = Criterion not met
